- Protocol Text: Solubility in water and buffers
- Format: physicochemical
- Settings: buffer system None (unbuffered water)
Observable: Inherent pH in parenthesis
Could you keep your reply to the number by itself?

| Compound | Inherent pH in parenthesis |
| --- | --- |
| CC[C@H](C(=O)N1CCCC[C@H]1C(=O)O[C@H](CCc1ccc(OC)c(OC)c1)c1cccc(OCCN(C)CCN(C)CCOc2cccc([C@@H](CCc3ccc(OC)c(OC)c3)OC(=O)[C@@H]3CCCCN3C(=O)[C@@H](CC)c3cc(OC)c(OC)c(OC)c3)c2)c1)c1cc(OC)c(OC)c(OC)c1.O=C(O)/C=C/C(=O)O [Fumarate] | 3.4 |
| CC[C@H](C(=O)N1CCCC[C@H]1C(=O)O[C@H](CCc1ccc(OC)c(OC)c1)c1cccc(OCCN(C)CCN(C)CCOc2cccc([C@@H](CCc3ccc(OC)c(OC)c3)OC(=O)[C@@H]3CCCCN3C(=O)[C@@H](CC)c3cc(OC)c(OC)c(OC)c3)c2)c1)c1cc(OC)c(OC)c(OC)c1.O=S(=O)(O)O [Sulphate] | 3.06 |

Query string: Need Inherent pH in parenthesis of CC[C@H](C(=O)N1CCCC[C@H]1C(=O)O[C@H](CCc1ccc(OC)c(OC)c1)c1cccc(OCCN(C)CCN(C)CCOc2cccc([C@@H](CCc3ccc(OC)c(OC)c3)OC(=O)[C@@H]3CCCCN3C(=O)[C@@H](CC)c3cc(OC)c(OC)c(OC)c3)c2)c1)c1cc(OC)c(OC)c(OC)c1.Cl , thanks.
Result string: 2.9

Query string: Now give it for CC[C@H](C(=O)N1CCCC[C@H]1C(=O)O[C@H](CCc1ccc(OC)c(OC)c1)c1cccc(OCCN(C)CCN(C)CCOc2cccc([C@@H](CCc3ccc(OC)c(OC)c3)OC(=O)[C@@H]3CCCCN3C(=O)[C@@H](CC)c3cc(OC)c(OC)c(OC)c3)c2)c1)c1cc(OC)c(OC)c(OC)c1.O=S(=O)(O)c1ccccc1 too.
Result string: 4.3

Query string: Would you kindly repeat that for CC[C@H](C(=O)N1CCCC[C@H]1C(=O)O[C@H](CCc1ccc(OC)c(OC)c1)c1cccc(OCCN(C)CCN(C)CCOc2cccc([C@@H](CCc3ccc(OC)c(OC)c3)OC(=O)[C@@H]3CCCCN3C(=O)[C@@H](CC)c3cc(OC)c(OC)c(OC)c3)c2)c1)c1cc(OC)c(OC)c(OC)c1.O=P(O)(O)O ?
Result string: 3.9
